Field: growth. Provide a value for each of the compounds that follow.
- Tested on: CCRF-CEM leukemia
- EXPERIMENT_DESCRIPTION: NCI-60 one-dose screen, 48 h (100 = growth as untreated, 0 = no growth, -100 = all killed)
- EXPERIMENTAL_PARAMETERS: 10 µM unless noted
This is part of a sample that, as a whole, favours compounds with a hit. Of some 83,000 tested, about 20% had one in any assay.
The answer is to be given in %; state only the numeric part.

// growth lookup, compound = Oc1ccc(CCl)c2cccnc12 , result: 31.8

// growth lookup, compound = Cc1nc(/N=C(\N)NC(=O)Nc2cccc(Cl)c2)sc1C , result: 68.4

// growth lookup, compound = COc1cc(C(=O)/C=C/c2c(Cl)nc3sccn23)cc(OC)c1OC , result: 48.7

// growth lookup, compound = COc1ccc(C2C(C#N)=C(N)Oc3c2sc2c(C)cccc32)cc1 (stereo unspecified) , result: 8

// growth lookup, compound = COc1ccc(-c2[nH]ncc2-c2cc3c(c(OC)c2)OCC(=O)N3)cc1 , result: 23.2

// growth lookup, compound = CCOC(=O)/C=C1\S/C(=N\Nc2ccc([N+](=O)[O-])cc2[N+](=O)[O-])N(Cc2ccccc2)C1=O , result: 39.6

// growth lookup, compound = N#Cc1ccc(NC(=O)c2sc3nc4c(cc3c2N)C(=O)CCC4)cc1 , result: 99.8

// growth lookup, compound = O=C(CSc1nccc(Nc2ccc(S(=O)(=O)Nc3nccs3)cc2)n1)c1ccc(C(F)(F)F)cc1 , result: 108

// growth lookup, compound = c1ccc2cc(C[n+]3ccn(CCCCCCCCCCCCn4cc[n+](Cc5ccc6ccccc6c5)c4)c3)ccc2c1 , result: -68.3

// growth lookup, compound = Cc1ccc(C(=O)N/N=C/c2cccc(Oc3ccccc3)c2)cn1 , result: 82.3

// growth lookup, compound = CCc1ccccc1-n1c(N)c(C#N)c(-c2ccc(Cl)cc2)c(C#N)c1=O , result: -18.3

// growth lookup, compound = C[C@]12CC[C@@H]3c4cc(OC(F)F)c(OS(N)(=O)=O)cc4CC[C@H]3[C@@H]1CC[C@@H]2O , result: 16.5

// growth lookup, compound = O=C(CCN1C(=O)/C(=C/c2ccc(O)cc2)SC1=S)Nc1ccccc1 , result: 72.2

// growth lookup, compound = COc1ccc([C@H]2c3cc(OC)c(OC)cc3C=C(C=O)C2CO)cc1OC (stereo partly specified) , result: 56.4

// growth lookup, compound = O=c1c2cc(F)ccc2sc2c(N3CCCCC3)nc3ccccc3c12 , result: 110

// growth lookup, compound = COc1cccc(Cc2nn3cc(-c4ccccc4)nc3s2)c1 , result: 30.2

// growth lookup, compound = COc1ccc2[nH]c(-c3ccccc3)c(/C=C(\C#N)S(=O)(=O)c3ccccc3)c2c1 , result: 36.2

// growth lookup, compound = COc1ccc(-c2nc(NN)c3c(C)nn(-c4ccc(F)cc4)c3n2)cc1 , result: 23.4

// growth lookup, compound = CCCCCCN(CCCCCC)c1ccc(/C=C2/SC(=O)NC2=O)c(C)c1 , result: 73

// growth lookup, compound = N#Cc1c(Nc2cccc(Cl)c2)sc(C(=O)c2cc3cc(Cl)ccc3o2)c1N , result: 52.8

// growth lookup, compound = CNc1nc2c(s1)C(c1cccc(F)c1)CC(=O)N2 (stereo unspecified) , result: 104

====

- Tested on: BT-549 breast
- EXPERIMENT_DESCRIPTION: NCI-60 one-dose screen, 48 h (100 = growth as untreated, 0 = no growth, -100 = all killed)
- EXPERIMENTAL_PARAMETERS: 10 µM unless noted
The panel holds about 83,000 compounds, 20% with a hit somewhere; the sample as a whole holds those more often.
REPORTED_PROPERTY: growth (%)
The answer is to be given in %; state only the numeric part.

// growth lookup, compound = COc1ccc2c(c1)C(C)Cc1c(ncnc1-n1c(C)nc3ccccc31)N2C (stereo unspecified) , result: 51.7

// growth lookup, compound = COC(=O)C(Cc1ccccc1)NC(=O)NC(=O)NC(=O)CI (stereo unspecified) , result: 79

// growth lookup, compound = CCCCCCN1C(=O)/C(=c2\sc3n(c2=O)C2C(NN=3)N(CC)C(=O)N2CC)c2ccccc21 (stereo unspecified) , result: 41.3

// growth lookup, compound = COC1=C(C)C(=O)c2c(c(CCCl)c3n2CCC3O)C1=O (stereo unspecified) , result: -30.4

// growth lookup, compound = NCCCNc1nc2ccccc2c2c(=O)c3cccc(F)c3sc12 , result: 91.2

// growth lookup, compound = CCOC(=O)/C=C1\S/C(=N\Nc2ccc([N+](=O)[O-])cc2[N+](=O)[O-])N(Cc2ccccc2)C1=O , result: 109

// growth lookup, compound = CC/C=C\C[C@@H](O)C/C=C1/C(=O)C=C[C@H]1C/C=C\CCCC(=O)OC , result: -6.09

// growth lookup, compound = CN1C(=O)CNC(=O)[C@H](NC(=O)c2nc3ccccc3cc2O)CSSC[C@H]1C(=O)NCCCc1nc2ccccc2cc1O , result: 75.8

// growth lookup, compound = COc1ccc([C@H]2c3cc(OC)c(OC)cc3C=C(C=O)C2CO)cc1OC (stereo partly specified) , result: 58.6

// growth lookup, compound = COc1cccc(-c2nc(-c3ccc(NC(=O)C(C)C)cc3)[nH]c2-c2ccnc(Br)c2)c1 , result: 56.9

// growth lookup, compound = Cc1c(C(=O)/C=C/Nc2c(Cl)cc(S(N)(=O)=O)cc2Cl)sc2nc3ccccc3n12 , result: 102

// growth lookup, compound = O=C(/C=C/c1sc(Cl)nc1Cl)c1ccc(F)cc1 , result: 103

// growth lookup, compound = Cc1c(C(=O)NCCCc2ccccc2)sc2ncc(-c3ccc(Br)cc3)n12 , result: 110

// growth lookup, compound = Cc1ccc(-c2nc(SCC(=O)Nc3nc(-c4ccc(Cl)cc4)cs3)[nH]c(=O)c2C#N)cc1 , result: 83.6

// growth lookup, compound = Cc1ccc(S(=O)(=O)N/N=C/C2(c3ccccc3)CC2)cc1 , result: 102

// growth lookup, compound = O=c1ccc(N=Nc2ccccc2)ccc1Cl , result: 135

// growth lookup, compound = N#Cc1c(-c2ccccc2)nc(SCC(=O)Nc2nc(-c3ccc(Cl)cc3)cs2)[nH]c1=O , result: 93.6

// growth lookup, compound = COc1cc(C2CC(c3ccc(N(C)C)cc3)=NN2C(C)=O)cc(OC)c1OC (stereo unspecified) , result: 45.1

// growth lookup, compound = COc1ccc(C(=O)N=Nc2c(O)n(C)c3ccccc23)cc1 , result: 103

// growth lookup, compound = CC(=O)O.CN1[CH-]N(Cc2ccc(C#N)cc2)c2ccccc21.[Ag+] , result: 102

// growth lookup, compound = COc1cc(CCCO)c(OC)c(OC)c1OC , result: 107

====

- Tested on: UACC-257 melanoma
- EXPERIMENT_DESCRIPTION: NCI-60 one-dose screen, 48 h (100 = growth as untreated, 0 = no growth, -100 = all killed)
- EXPERIMENTAL_PARAMETERS: 10 µM unless noted
About 83,000 compounds went through this panel and 20% of them were active in at least one assay; those are over-represented in the sample as a whole.
Field: growth. Provide a value for each of the molecules that follow.
The answer is to be given in %; state only the numeric part.

// growth lookup, molecule = COc1cccc2nc3n(c12)C(c1c(F)cccc1F)SC3 (stereo not given) , result: 100

// growth lookup, molecule = CCOc1c(B(O)O)cccc1-c1nc2ccc3[nH]ncc3c2c2c1CCCC2 , result: 135

// growth lookup, molecule = Cc1nn(-c2ccccc2)c2c1N=c1s/c(=C\c3ccc(C(F)(F)F)cc3)c(=O)n1CN2 , result: -1.84

// growth lookup, molecule = CCc1ccc(Oc2c(-c3ccc(OCc4ccc(Cl)cc4)cc3O)nn(C)c2C(F)(F)F)cc1 , result: -18.3

// growth lookup, molecule = O=C(CSc1nc2ccccc2[nH]1)Nc1cccc(Cl)c1 , result: 117

// growth lookup, molecule = O=C(Nn1c(NCC(=O)N2c3ccccc3Sc3ccccc32)nnc1-c1ccc(O)cc1)c1ccccc1 , result: 104

// growth lookup, molecule = CCCCOc1nc2c(C)cccc2cc1-c1cc(-c2ccc(Cl)cc2)nc(-c2ccc(Cl)cc2)c1 , result: 98.9

// growth lookup, molecule = Cc1ccc(C(=O)NCCNc2nccc(-c3c(-c4cccc(F)c4)nc4sccn34)n2)cc1 , result: 75.1

// growth lookup, molecule = COc1ccc(-c2nc3sc(-c4ccc(Cl)cc4)cn3n2)cc1 , result: 84.6

// growth lookup, molecule = CCCCCCNC(=O)Oc1ccc(/C(=C(\C)c2ccc(Cl)cc2)c2ccc(OCCCN(C)C)cc2)cc1 , result: 60

// growth lookup, molecule = CCOC(=O)/C(C#N)=C\Nc1ccc2ncnc(Nc3ccc(Cl)cc3Cl)c2c1 , result: 97.2

// growth lookup, molecule = COc1ccc(-n2c(N)c(-c3nc4ccccc4[nH]3)cc(C#N)c2=O)cc1 , result: 96.4

// growth lookup, molecule = COc1ccc(CNC(=O)[C@H](O)[C@@H](N)Cc2ccccc2)cc1 , result: 108

// growth lookup, molecule = CCN1C(=O)N(CC)C2Nn3c(s/c(=C4\C(=O)N(CCC(C)C)c5ccccc54)c3=O)=NC21 (stereo not given) , result: 66.3

// growth lookup, molecule = Brc1c[n+](Cc2ccc3ccccc3c2)cn1Cc1ccc2ccccc2c1 , result: -35.4

// growth lookup, molecule = O=C(Nc1ccc(I)cc1F)c1cc(I)ccc1O , result: -17

// growth lookup, molecule = COc1cc2cc(Oc3ccc(NC(=O)Nc4cc(C(F)(F)F)cc(C(F)(F)F)c4)cc3)c(C)nc2cc1OCCN1CCOCC1 , result: 7.28

// growth lookup, molecule = O=c1ccc(N=Nc2ccccc2)ccc1Cl , result: 74.6

// growth lookup, molecule = CN1C(=C2C(=O)OC(C)(C)OC2=O)CCC1C(=O)NCc1ccc(Cl)cc1Cl (stereo not given) , result: 87

// growth lookup, molecule = COc1ccc2c(c1OC)C(=O)O[C@H]2[C@H]1c2c(cc3c(c2OC)OCO3)CCN1C , result: 95.2
